Test system: DU-145 prostate
Experiment: NCI tumour cell line growth inhibition, 48 h
Everything with TGI lower than 30 µM is not fulfilled; everything else, including exactly 30 µM, is fulfilled.

These solved cases illustrate the format of a correct answer.
molecule	category
O=C1NC(Cc2ccc(O)cc2)C(=O)NC1Cc1ccc(O)cc1 (stereo not given)	fulfilled
COc1ccc(-c2ccc(/C=N/n3c(COc4ccccc4Cl)nn(CN4CCOCC4)c3=S)o2)c([N+](=O)[O-])c1	fulfilled
CC(C)=CCC[C@@H](C)C1=C(O)C(Nc2ccccc2I)=C(C)C(=O)C1=O	fulfilled
COc1cc(Oc2nc3cc(F)c(F)cc3nc2-c2ccccc2)cc(OC)c1OC	fulfilled
CCCCCCCCOc1ccc(/C=C/C2=[N+](CCO)CCO2)cc1	not fulfilled

Challenge: Hi team, for CCSC1=CC2(O)N(CCc3ccc(OC)c(OC)c3)C(=O)CC2(C(=O)OC)CC1=O (stereo not given) , is the recorded TGI at or above 30 µM?
Response given: fulfilled

Challenge: Hi team, for O=C1NC(N2CCOCC2)=N/C1=C\c1ccc(O)cc1 , is the recorded TGI at or above 30 µM?
Response given: fulfilled

Challenge: Hi team, for CC(C)CCOC(=O)NC(Nc1ccc(F)cc1)(C(F)(F)F)C(F)(F)F , is the recorded TGI at or above 30 µM?
Response given: fulfilled

Challenge: Hi team, for C#Cc1cccc(Nc2nc(Cl)nc3cc(NC(=O)CCl)ccc23)c1 , is the recorded TGI at or above 30 µM?
Response given: not fulfilled

Challenge: Hi team, for CC(=O)O[C@H]1CC2C(C3CCC(C(C)CCC(N)=O)[C@]31C)[C@H](OC(C)=O)C[C@@H]1CC3(CC[C@]21C)OOC1(CC[C@]2(C)C4C[C@H](OC(C)=O)[C@]5(C)C(C(C)CCC(N)=O)CCC5C4[C@H](OC(C)=O)C[C@@H]2C1)OO3 (stereo not given in full) , is the recorded TGI at or above 30 µM?
Response given: not fulfilled

Challenge: Hi team, for C=C1C(O)C2CC(C)(CO)C(=O)C2=C(CC(C)C)C12CC2 (stereo not given) , is the recorded TGI at or above 30 µM?
Response given: fulfilled

###

System: NCI-H226 lung
Assay: NCI tumour cell line growth inhibition, 48 h
In this section, each of the compounds is paired with its reported TGI.

Challenge: For O=C(O)CCNS(=O)(=O)c1ccc2ccccc2c1 , what is its reported TGI?
Response given: > 100 µM

Challenge: For CC(C)CCOC(=O)NC(Nc1ccc(F)cc1)(C(F)(F)F)C(F)(F)F , what is its reported TGI?
Response given: > 100 µM

Challenge: For C=C1CC(C)(c2cccc(Nc3nc4ccccc4c4occc34)c2)OC1=O (configuration not stated) , what is its reported TGI?
Response given: 4.54 µM

Challenge: For CS(=O)(=O)Nc1cccc(-c2ccc3ncnc(Nc4ccc(F)c(Cl)c4)c3c2)c1 , what is its reported TGI?
Response given: 5.33 µM

Challenge: For Cc1ccc(C)c(N2C(=O)C(=O)C(c3nc4ccccc4o3)C(=O)C2=O)c1 , what is its reported TGI?
Response given: > 100 µM

Challenge: For COc1ccc(-c2cncn2-c2cc(OC)c(OC)c(OC)c2)cc1 , what is its reported TGI?
Response given: 82.6 µM

Challenge: For CC1=C(SC#N)S(=O)(=O)N(c2ccccc2)C(C)=C1SC#N , what is its reported TGI?
Response given: 81.6 µM

Challenge: For COC(=O)Nc1nc2ccccc2[nH]1 , what is its reported TGI?
Response given: > 100 µM

Challenge: For CC1CCC2(OC1)OC1C(O)C3C4CCC5CC(OC6OC(CO)C(OC7OC(CO)C(O)C(OC8OCC(O)C(O)C8O)C7OC7OC(CO)C(O)C(OC8OC(CO)C(O)C(O)C8O)C7O)C(O)C6O)C(O)CC5(C)C4CCC3(C)C1C2C (configuration not stated) , what is its reported TGI?
Response given: 3.33 µM
